Taken from paper PMC10397247.

Tested system: T1, 4H2473-AA
T1 chain: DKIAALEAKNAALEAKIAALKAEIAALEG
Assay protocol: two-hybrid library CCmax;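 also: natural log of median RNA to DNA barcode read ratio; higher means stronger binding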
Stated conditions: mean of both orientations
Measurement kind: interaction score

Record excerpt, results attached:
// query So what's the measured interaction score for this one? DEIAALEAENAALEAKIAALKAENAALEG [4H171-AA]
// result -1.21

// query Same question for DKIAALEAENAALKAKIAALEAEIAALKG [4H2274-AA] please.
// result -0.485

// query Repeat for the following binder: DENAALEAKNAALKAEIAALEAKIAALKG [4H1478-AA]
// result 2.04

// query How about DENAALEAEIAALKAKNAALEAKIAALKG [4H1142-AA] ?
// result -2.06

// query Then this binder: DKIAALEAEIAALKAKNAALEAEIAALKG [4H2162-AA]
// result -1.53

I = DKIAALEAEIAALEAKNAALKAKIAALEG [4H2109-AA]
II = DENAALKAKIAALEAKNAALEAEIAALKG [4H1842-AA]
III = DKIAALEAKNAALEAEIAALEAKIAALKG [4H2438-AA]
// query Please list these binders in decreasing order of interaction score. Your answer should be the labels, listed in the requested order.
// result III, I, II
(III: 1.99, I: -0.356, II: -1.44)

I = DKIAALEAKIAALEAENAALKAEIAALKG [4H2330-AA]
II = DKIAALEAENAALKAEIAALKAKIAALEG [4H2253-AA]
III = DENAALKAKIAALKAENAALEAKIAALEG [4H1877-AA]
// query // smallest interaction score at index 0, largest at the end Provide the labels, sequenced as the question asks.
// result III, II, I
(III: -1.47, II: -1.02, I: -0.502)

1 = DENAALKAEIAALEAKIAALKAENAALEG [4H1579-AA]
2 = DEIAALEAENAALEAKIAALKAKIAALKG [4H174-AA]
// query Which entry has a larger number for interaction score, 1 or 2 ? When you have decided, please share the label of that item.
// result 2
(2: 1.69, 1: -1.09)
